Source: patent US20150148377A1

# SYSTEM_NAME: PI3K alpha (Homo sapiens, UniProt P42336)
# Construct: His tag (C); Tn5 (Trichoplusia ni) or TiniPro insect cells
# Sequence (P42336 with tags, fused parts or gaps limits assumed): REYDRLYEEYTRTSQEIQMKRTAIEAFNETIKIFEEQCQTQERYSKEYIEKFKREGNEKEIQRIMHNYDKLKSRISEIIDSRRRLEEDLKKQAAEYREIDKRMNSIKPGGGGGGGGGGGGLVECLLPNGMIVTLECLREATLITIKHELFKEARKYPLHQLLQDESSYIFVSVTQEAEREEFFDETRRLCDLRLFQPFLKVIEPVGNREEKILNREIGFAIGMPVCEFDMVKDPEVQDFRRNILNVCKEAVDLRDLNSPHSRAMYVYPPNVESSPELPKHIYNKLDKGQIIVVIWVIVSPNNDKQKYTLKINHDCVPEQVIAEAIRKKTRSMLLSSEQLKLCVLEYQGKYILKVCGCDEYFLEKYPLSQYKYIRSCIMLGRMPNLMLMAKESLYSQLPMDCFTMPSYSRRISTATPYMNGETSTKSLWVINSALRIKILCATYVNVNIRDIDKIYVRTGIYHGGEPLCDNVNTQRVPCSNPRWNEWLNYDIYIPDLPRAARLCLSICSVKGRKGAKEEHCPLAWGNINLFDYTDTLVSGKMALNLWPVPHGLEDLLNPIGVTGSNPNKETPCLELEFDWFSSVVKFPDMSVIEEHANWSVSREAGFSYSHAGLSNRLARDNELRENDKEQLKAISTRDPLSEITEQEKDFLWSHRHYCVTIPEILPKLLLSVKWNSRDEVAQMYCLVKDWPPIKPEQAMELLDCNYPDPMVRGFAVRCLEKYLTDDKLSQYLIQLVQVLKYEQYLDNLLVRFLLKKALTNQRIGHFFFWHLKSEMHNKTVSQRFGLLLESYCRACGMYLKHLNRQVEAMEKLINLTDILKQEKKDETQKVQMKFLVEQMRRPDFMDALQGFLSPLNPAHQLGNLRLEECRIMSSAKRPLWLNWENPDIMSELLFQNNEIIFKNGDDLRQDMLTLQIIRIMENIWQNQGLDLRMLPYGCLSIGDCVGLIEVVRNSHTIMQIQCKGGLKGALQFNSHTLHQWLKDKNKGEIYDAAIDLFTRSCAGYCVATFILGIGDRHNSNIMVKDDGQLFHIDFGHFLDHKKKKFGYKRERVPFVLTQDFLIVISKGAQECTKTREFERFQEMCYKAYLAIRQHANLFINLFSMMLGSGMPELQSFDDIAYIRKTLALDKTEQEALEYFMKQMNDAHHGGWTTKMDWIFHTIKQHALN
# ASSAY_PROTOCOL: Enzymatic PI3K alpha isoform inhibition (lipid kinase activity, Kinase-Glo)
# SETTINGS: enzymatic assay
Classification scheme (IC50): lo (below 300 nM), med (300 nM to below 800 nM), hi (800 nM or more)

Answered cases to consult:
- MOL: "COc1ncc(-c2ccnc3ccc(O[C@H]4CCN(C(=O)C5CCS(=O)(=O)CC5)C4)cc23)cc1C#N"
  ASSIGNED_CLASS: "med"
- MOL: "Cc1cc(-c2ccnc3ccc(O[C@H]4CCN(C(=O)C5CCOCC5)C4)c(C)c23)cnc1S(C)(=O)=O"
  ASSIGNED_CLASS: "med"
- MOL: "COc1ncc(-c2ccnc3ccc(O[C@H]4CCN(C(=O)c5ccc(=O)[nH]c5)C4)cc23)cc1C"
  ASSIGNED_CLASS: "lo"
- MOL: "COc1ncc(-c2ccnc3ccc(O[C@H]4CCN(C(=O)C5CCS(=O)(=O)CC5)C4)cc23)cc1CF"
  ASSIGNED_CLASS: "lo"
- MOL: "CC(=O)N1CC[C@@H](C(=O)N2CC[C@H](Oc3ccc4nccc(-c5cnc(OC(F)F)c(C)c5)c4c3)C2)C1"
  ASSIGNED_CLASS: "hi"
- MOL: "COc1ncc(-c2ccnc3ccc(O[C@H]4CCN(C(=O)[C@@H]5CCN(C(C)=O)C5)C4)cc23)cc1C"
  ASSIGNED_CLASS: "hi"
- MOL: "CS(=O)(=O)c1ncc(-c2ccnc3ccc(O[C@H]4CCN(C(=O)C5CCOCC5)C4)cc23)cc1Cl"
  ASSIGNED_CLASS: "hi"
- MOL: "COc1ncc(-c2ccnc3ccc(O[C@H]4CCN(C(=O)c5cn(C)cn5)C4)cc23)cc1C(F)(F)F"
  ASSIGNED_CLASS: "lo"

# bin label for CS(=O)(=O)c1ncc(-c2ccnc3ccc(O[C@H]4CCN(C(=O)C5CCOCC5)C4)cc23)cc1CF med

Sort into band: Nc1ncc(-c2ccnc3ccc(O[C@H]4CCN(C(=O)C5CCOCC5)C4)cc23)cc1C(F)(F)F lo

Assign a bin to Cc1cc(-c2ccnc3ccc(O[C@H]4CCN(C(=O)C5CCOCC5)C4)cc23)cnc1S(C)(=O)=O hi

Class for CCC(=O)N1CC[C@H](Oc2ccc3nccc(-c4cnc(OC)c(C)c4)c3c2)C1 ? lo

====

# SYSTEM_NAME: PI3K alpha (Homo sapiens)
# Construct: His tag (C); Tn5 (Trichoplusia ni) or TiniPro insect cells
# ASSAY_PROTOCOL: Enzymatic PI3K alpha isoform inhibition (lipid kinase activity, Kinase-Glo)
# SETTINGS: enzymatic assay
Could you please report measured pIC50 for the items listed next?
Numbers only, as −log10 of the molar value.

Some compounds with known pIC50 results, for comparison:
- MOL: "COc1ncc(-c2ccnc3ccc(O[C@H]4CCN(C(=O)C5CCS(=O)(=O)CC5)C4)cc23)cc1C(F)(F)F"
  SYSTEM_NAME: "PI3K alpha (Homo sapiens)"
  pIC50: 6.88
- MOL: "COc1ncc(-c2ccnc3ccc(O[C@H]4CCN(C(=O)C5CCN(C(C)=O)CC5)C4)cc23)cc1C(F)(F)F"
  SYSTEM_NAME: "PI3K alpha (Homo sapiens)"
  pIC50: 6.68
- MOL: "COc1ncc(-c2ccnc3ccc(O[C@H]4CCN(C(=O)[C@@H]5CCN(C(C)=O)C5)C4)c(C)c23)cc1C(F)F"
  SYSTEM_NAME: "PI3K alpha (Homo sapiens)"
  pIC50: 7.20
- MOL: "COc1ncc(-c2ccnc3ccc(O[C@H]4CCN(C(=O)C5CCS(=O)(=O)CC5)C4)cc23)cc1C(F)F"
  SYSTEM_NAME: "PI3K alpha (Homo sapiens)"
  pIC50: 7.28
- MOL: "COc1ncc(-c2ccnc3ccc(O[C@H]4CCN(C(=O)C5CCOCC5)C4)cc23)cc1C(F)(F)F"
  SYSTEM_NAME: "PI3K alpha (Homo sapiens)"
  pIC50: 7.02

For each entry beneath this line, provide reported pIC50.
1. COc1ncc(-c2ccnc3ccc(O[C@H]4CCN(C(=O)C5CCS(=O)(=O)CC5)C4)c(C)c23)cc1C(F)F
2. COc1ncc(-c2ccnc3ccc(O[C@H]4CCN(C(=O)C5CCS(=O)(=O)CC5)C4)cc23)cc1F

[6.75, 6.89]
